B1: RHOBTB3 (parent)
chain: STTEGIQLAKELGATYLELHSLDD

- Variants of: B1
- Test method notes: protein stability index of a GFP-peptide fusion (GPS, HEK-293T) (PSI 1-6); higher = more stable;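 note: lentivirally expressed fusions sorted by FACS into six bins by GFP to DsRed ratio, PSI derived from sequencing read proportions per bin multiplied by bin number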
- Cond: c terminus: a fixed tail appended
Metric name: protein stability index

- STTEVIQLAKELGATYLELHSLDD [G5V]: 3.98
- STTEGIQLAKELGATYLELHKLDD [S21K]: 3.02
- STTERIQLAKELGATYLELHSLDD [G5R]: 3.89
- STTECIQLAKELGATYLELHSLDD [G5C]: 3.02
- STTEGIQLAKPLGATYLELHSLDD [E11P]: 3.92
- STTEGIQLAKKLGATYLELHSLDD [E11K]: 2.94
- STTEGIQLAKEFGATYLELHSLDD [L12F]: 3.89
- STTEGIQMAKELGATYLELHSLDD [L8M]: 4.11
- STTEGIQLAKELGATLLELHSLDD [Y16L]: 2.91
